B1: Twister Ribozyme (parent)
chain: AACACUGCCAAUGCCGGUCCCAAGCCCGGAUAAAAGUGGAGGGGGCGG

# Variants of: B1
# Assay notes: self-cleavage, relative activity (ratio to wild type); higher = more cleavage; co-transcriptional
Assay readout: self-cleavage

    mutant_id  assay_readout  observed
 0  A33C C46A  self-cleavage     0.934
 1  U18G C26G  self-cleavage    0.0643
 2  C26A G45A  self-cleavage     0.258
 3    U6G C8G  self-cleavage       0.2
 4   C5G G36U  self-cleavage     0.724
 5   A4U C27A  self-cleavage    0.0441
 6  A22C C27A  self-cleavage     0.768
 7  A10G A23U  self-cleavage      0.92
 8  U12C U37C  self-cleavage     0.624
 9  G24A G45U  self-cleavage     0.118
10  A10U G13U  self-cleavage     0.489
